B1: HDV Ribozyme (parent)
chain: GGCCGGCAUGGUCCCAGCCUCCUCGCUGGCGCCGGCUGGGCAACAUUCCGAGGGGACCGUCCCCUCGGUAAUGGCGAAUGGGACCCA

Variants of: B1
Test: self-cleavage, relative activity (ratio to wild type); higher = more cleavage; co-transcriptional
Entry flag: YES if self-cleavage reaches 0.6; NO if it does not.

SEQUENCE_CODE	ASSIGNED_LABEL
GGCCGGCAUAGUCCCAGCCUCCUCGCUGGCGCCGGCUGGGCAACAUUCCGAGGGGUCCGUCCCCUCGGUAAUGGCGAAUGGGACCCA	YES
GGCCGGCAUGGUCCCAGCCUCCUCGCUGGCGCCGGCUGGGCAACAUUCCGAGGGGACCGUCCCCUCGGUAAUGGCAAGUGGGACCCA	YES
GGCCGGCAUGGUCCCAGCCUCCUCGCUUGCGCCGGCUGGGCAACAUUCCGAGGGGACCGUCCCCUCGGUAUUGGCGAAUGGGACCCA	NO
GGCCGGCAUGGUCCCAGCCUCCUCGCUGGCGCCGGAUGGGCAACAUUCCGAGGGGACCGUUCCCUCGGUAAUGGCGAAUGGGACCCA	NO
GGCCGGCAUGGUCCCAGCCUCCUCGCUGGCGCCGGCUGGGCAACAUUCCGAGGGGACCGUCCCCACGGGAAUGGCGAAUGGGACCCA	YES
GGCCGGCAUGGUCCCAGCCUCCUCGCUGGCGCCGGCUGGGCAACAUUCCGAGGGGACCGUCCUCUCGGUACUGGCGAAUGGGACCCA	YES
GGCCGGCAUGGUCCCAGCCUCCUCGCUGGCGCCGGCUGGGCAACAUUCCGAGGGGACCGUCCCCUCGUUAAUGGUGAAUGGGACCCA	NO
GGCCGGCAUGGUCCCAGCCUCGUCGCUGGCGCCGGCUGGGCAACAUUCAGAGGGGACCGUCCCCUCGGUAAUGGCGAAUGGGACCCA	NO
GGCCGGCAUGGUCCCAGUCUCCUCGCUGGCGCCGGCUGGGCAACAUUCCGAGGGGACCGUCCCCUCGGUAAUGGCGGAUGGGACCCA	YES
GGCCGGAAUGGUCCCAGCCUCCUCGCUGGCGCCGGCUGGGCAACAUUCCGAGGGGACCGUCCCCUCGGUAAUGGCGAAUGGUACCCA	NO
GGCCGGCAUGGUCCCAGCCUCCUCGCUGGCGCCGGCUGGGCAACAUUCCGAGGGGACCAUCCCCUUGGUAAUGGCGAAUGGGACCCA	YES
GGCCGGCAUAGUCCCAGCCUCCUCGCUGGCGCCGGCUGGGCAACUUUCCGAGGGGACCGUCCCCUCGGUAAUGGCGAAUGGGACCCA	NO
GGCCGGCAUGGUCCCAGCCUCCUCGCGGGCGCCGGCCGGGCAACAUUCCGAGGGGACCGUCCCCUCGGUAAUGGCGAAUGGGACCCA	YES
GGCCGGCAUGGUCCCAGCCUCCUCGCUGGCGCCGGCUGGGCAACACUCCGAGGGGACCGUCCCCUCGGUAAUGGCGGAUGGGACCCA	NO
GGCCGGCAUGGUCCCAGCCUCCUCGCUGGCGCCGGCUGGGCAACAUUCCGAGGGGACCGUCCCUCCGGUAAUGGCGAAUGGGACCCA	YES
GGCCGGCAUGGUCCCAGCCUCCUCGCUGGCGCCGGCUGGGCAACAUUCCGAGGGGACCGUCCCCCCGGUAAUGGCGAAUGGGUCCCA	NO
GGCCGGCAUGGUCCCAGCCUCCACGCUGGCGCCGGCUGGGCAACAUUCCGAGGGGACCGUCCCCUCGGUAAUGGCGAAUGGUACCCA	NO
GGCCGGCAUGGUGCCAGCCUCCUCGCUGGCGCCGGCUGGGCAACAUUGCGAGGGGACCGUCCCCUCGGUAAUGGCGAAUGGGACCCA	NO
GGCCGGCAUGGUCCCAGCCUCGUCGCUGGCGGCGGCUGGGCAACAUUCCGAGGGGACCGUCCCCUCGGUAAUGGCGAAUGGGACCCA	NO
GGCCGGCAUGGUCCCAGCCUCCUCGAUGGCGUCGGCUGGGCAACAUUCCGAGGGGACCGUCCCCUCGGUAAUGGCGAAUGGGACCCA	YES
GGCCGGCAUGGUCCCAGCCUCCUCGCUGUCGCCGGCUGGGCAACAUACCGAGGGGACCGUCCCCUCGGUAAUGGCGAAUGGGACCCA	NO
GGCCGGCAUGGUCCUAGCCUCCUCGCUUGCGCCGGCUGGGCAACAUUCCGAGGGGACCGUCCCCUCGGUAAUGGCGAAUGGGACCCA	NO
GGCCGGCAUGGUCCCAGCCUCCUCGCUGGCGCGGGCUGGGCAACAUUCCGAGAGGACCGUCCCCUCGGUAAUGGCGAAUGGGACCCA	NO
GGCCGGCAUGGUCCCAGCCUCCUCGCUGGCGCCGGCUGGGCAACAUUCCGAGGGGACCGUCCCCUCGGAAGUGGCGAAUGGGACCCA	YES
GGCCGGCAUGGUCCCAGCCUCCUCGCUGGCGCCGGCUGGGCAACAUUGCGAGGGGACCAUCCCCUCGGUAAUGGCGAAUGGGACCCA	YES
GGCCAGCAUGGUCCCAGCCUCCUCGCUGGCGCCGCCUGGGCAACAUUCCGAGGGGACCGUCCCCUCGGUAAUGGCGAAUGGGACCCA	NO
GGCCGGCAUGGUCCCAGCCUCCUCGCUGGCGCCGGCUGGGCAACAUUCCGAGGGGACCGUCCCCUCGGUAAUGGCGUAUGUGACCCA	NO
GGCCGGCAUGGUCCCAGCCUCCUCGCUGGCGCCGGCAGGGCAACAUUCCGAGGGGACCGUCCCCUCGGUAAUGGCGAAGGGGACCCA	NO
GGCCGGCAUGGUCCCAGCCUCCUCGCUGGCUCCGGCUGGGCAACAUUCCGAGGGGACCGUCCCCUCGGUAAUGGCGAAUAGGACCCA	NO
GGCCGGCAUGGUCCCAGCCUCCUCGCUGGCGCCGGCUGGGCAACAUUCCGAGGGGACCGUCCCGUCGGUAAUGGCGAAUCGGACCCA	NO
GGCCGGCAUGGGCCCAGCCUCCUCGCUGGCGCCGGCUGGGCAACAUUCCGAGGGGACCGUCCCCUUGGUAAUGGCGAAUGGGACCCA	YES
GGCCGGCAUGGUCCCAGCCUCCUCGCUGGCGCCGGCUGGCCAACAUUCCGAGGGGACCGUCCCCUCGGUAAUGGCGAAUGGGAUCCA	NO
GUCCGGCAUGGUCCCAGCCUCCUCGCUGGCGCCGGCUGGGCAACAUUCCGAGGGGACCGUCCCCUCGGUGAUGGCGAAUGGGACCCA	NO
GGCCAGCAUGGUCCCAGCCUCCUCGCUGGCGCCGGCUGGGCAACAUUCCGAGGGGACCGUCCCCUCGGUAAAGGCGAAUGGGACCCA	NO
GGCCGGCAUGGUCCCAGCCUCCUCGCUGGCGCCGGCUCGGCAACUUUCCGAGGGGACCGUCCCCUCGGUAAUGGCGAAUGGGACCCA	NO
GGCCGGCGUGGUCCCAGCCUCCUCGCUGGCGCCGGCUGGGCAACAUUCCGAGGGGACCGUCCCCUCGUUAAUGGCGAAUGGGACCCA	YES
GGCCGGCAUGGUCCCAGCCUCCUCGCUGGCGCCGGCUGGGCAACAUUCCGAGGGUACCGUCCCCUCGGAAAUGGCGAAUGGGACCCA	YES
GGCCGGCAUGGUCCCAGCCUCCUCGCUGGCGCCGGCUGAGCAACAUUCCGAGGGGACCGUCCCCUCGGUAAAGGCGAAUGGGACCCA	NO
GGCCGGCAUGGUCCCAGCCCCCUUGCUGGCGCCGGCUGGGCAACAUUCCGAGGGGACCGUCCCCUCGGUAAUGGCGAAUGGGACCCA	NO
GGCCGGCAUGGUCCCAGCCUCCUCGCUGGCGCCGGCUGGGCAACAUUCCGAUGGGACCGUCCCCUCGGUAAUGGCGAAUGGAACCCA	NO
GGCCGGCAUGGUCCCAGCCUCCUCGCUGGCGCCGGCUGGGCAACAUUACGAGGGGACCGUCCCCUCGGUAAUGGCGAAUGGGACCCG	YES
GGCCGGCAUGGUCCCAGCCUCCUCGCUGGCGCUGGCUGGGCAACAGUCCGAGGGGACCGUCCCCUCGGUAAUGGCGAAUGGGACCCA	YES
GGCCGGCAUGGUCCCAGCCUCCUCGCUGGCGCCGGCUGGGCAGCAUUCCGAGGGGACCGUCCCUUCGGUAAUGGCGAAUGGGACCCA	YES

Just for reference, the RNAGym collection of RNA variant scans (doi:10.7554/elife.80360) is where these values come from.
